Test: Quantitative High-Throughput drug screen in 47 multiple myeloma cell lines against the NCATS MIPE library collection: KMM1_JCRB cell viability assay (AID 1918960); further: nearly all actives have a fitted effect of over 30% in size
Conditions: KMM1 myeloma viability, CellTiter-Glo ATP luminescence, 48 h; series mostly up to 45.8 µM
Results filed as inconclusive are left out. Active and inactive are the calls of the source. The call rests on the fitted dose curve; in most records, active means well fitted cell-killing curve with a large enough effect; inconclusive means small, poorly fitted or top-dose-only effect, or effect the other way; inactive means no such curve, though single readings can be large or run the other way.
Give your call using only these classes: 1 (yes) for active, 0 (no) for inactive

Known results for compounds:
So what was the verdict on CC(=O)Nc1nc(C)c(-c2ccc(Cl)c(S(=O)(=O)NCCO)c2)s1 in this test? 1 (yes)

One more compound: COc1cc2c(Oc3ccc4[nH]c(C)cc4c3F)ncnc2cc1OCCCN1CCCC1 1 (yes)

What about this compound? O=C(Nc1cn[nH]c1-c1nc2ccc(CN3CCOCC3)cc2[nH]1)NC1CC1 1 (yes)

Continuing:
Would you mind telling me which call this test gave O=C(Nc1nc2cccc(-c3ccc(CN4CCS(=O)(=O)CC4)cc3)n2n1)C1CC1 ? 1 (yes)

Please do the same for COc1ccc(F)c(F)c1C(=O)c1cnc(NC2CCN(S(C)(=O)=O)CC2)nc1N as well. 1 (yes)

Input CNC(=O)c1ccc(-c2cnc3ncc(Cc4ccc5ncccc5c4)n3n2)cc1F 0 (no)

Input Cn1c(CNc2ccc(C(=N)N)cc2)nc2cc(C(=O)N(CCC(=O)O)c3ccccn3)ccc21 0 (no)

Would you kindly repeat that for Cc1cc(Nc2ncnc3ccc(-c4ccc(CNCCS(C)(=O)=O)o4)cc23)ccc1Oc1ccn2ncnc2c1 ? 1 (yes)

What about this compound? Cc1c(NC(=O)OC[C@@H]2COCCN2)cn2ncnc(Nc3ccc4c(cnn4Cc4cccc(F)c4)c3)c12 1 (yes)

====

Experiment: Quantitative High-Throughput drug screen in 47 multiple myeloma cell lines against the NCATS MIPE library collection: KMS26_JCRB cell viability assay (AID 1918975); further: potency means the concentration at half of the fitted maximal effect; nearly all actives have a fitted effect of over 45% in size
Conditions: KMS26 myeloma cells viability, CellTiter-Glo ATP, 48 h; series mostly up to 45.8 µM
Source text: PI: Beverly A. Mock Ph.D. Laboratory of Cancer Biology and Genetics, Center for Cancer Research, National Cancer Institute, National Institute of Health, Bethesda, Maryland […] 5; Detector; 425V; Luminescence; Viewlux PerkinElmer. […] 1. […] Briefly, the corresponding myeloma cell lines were screened in 1,536-well plates with 500 cells, 5-uL per well for inhibition of cell viability (assessed by measuring ATP levels with CellTiterGlo). […]
Inconclusive results are not listed. Activity calls are given as the source filed them. The call rests on the fitted dose curve; in most records, active means well fitted cell-killing curve with a large enough effect; inconclusive means small, poorly fitted or top-dose-only effect, or effect the other way; inactive means no such curve, though single readings can be large or run the other way.
measure: Potency

Recorded Potency for C=CC(=O)Nc1cc2c(Nc3ccc(F)c(Cl)c3)ncnc2cc1OCCCN1CCOCC1 , please? 5.26 µM (active)

Proceed to CCN(CC)CCNC(=O)c1ccc2nc(-c3ccccc3)c(-c3ccc(CN4CCC(n5c(=O)[nH]c6ccccc65)CC4)cc3)nc2c1 14.8 µM (active)

Next entry: COc1cc2ncnc(Nc3ccc(F)c(Cl)c3)c2cc1NC(=O)C=CCN1CCCCC1 18.7 µM (active)

Ok, now COc1cc(C(=O)NS(=O)(=O)c2ccccc2C)ccc1Cc1cn(C)c2ccc(NC(=O)OC3CCCC3)cc12 16.6 µM (active)

Another molecule: CC[C@@H]1C(=O)N(C)c2cnc(Nc3ccc(C(=O)NC4CCN(C)CC4)cc3OC)nc2N1C1CCCC1 3.72 µM (active)

O=C(C=Cc1cccnc1)NCCCCC1CCN(C(=O)c2ccccc2)CC1 ? 0.0053 µM (active)

# repeat for Cc1cc(Nc2ncnc3ccc(-c4ccc(CNCCS(C)(=O)=O)o4)cc23)ccc1Oc1ccn2ncnc2c1 26.4 µM (active)

Would you kindly repeat that for COc1cc2c(Oc3ccc(NC(=O)C4(C(=O)Nc5ccc(F)cc5)CC4)cc3F)ccnc2cc1OCCCN1CCOCC1 ? 16.6 µM (active)

Cc1nc(Nc2n[nH]c3c2CN(C(=O)N[C@H](CN(C)C)c2ccccc2)C3(C)C)c2sccc2n1 , same question. 2.96 µM (active)

Would you mind doing Nc1ncnc2c1c(-c1cccc(OCc3ccccc3)c1)cn2C1CC(CN2CCCC2)C1 (configuration not stated) as well? 4.69 µM (active)

Next:
Look up Potency: Cc1ccc(S(=O)(=O)Nc2cc(Cl)ccc2C(=O)Nc2nc(-c3ccccc3)cs2)cc1 18.7 µM (active)

Okay, and COc1c(OCCCN2CCOCC2)ccc2c3n(c(=NC(=O)c4cnc(N)nc4)nc12)CCN3 ? 0.407 µM (active)

Next entry: CC1(O)CC(c2nc(-c3ccc4ccc(-c5ccccc5)nc4c3)c3c(N)nccn23)C1 (configuration not stated) 0.833 µM (active)

Now give it for CC(=O)OCC(=O)[C@@]1(O)[C@H](C)C[C@H]2[C@@H]3C=C(C)C4=Cc5c(cnn5-c5ccccc5)C[C@]4(C)[C@@H]3[C@@H](O)C[C@@]21C too. 10.5 µM (active)

How about CN1CCN(c2ccc3nc(-c4c(N)c5c(F)cccc5[nH]c4=O)[nH]c3c2)CC1 ? 29.6 µM (active)

Another molecule to check: CC1(C)CCC(c2ccc(Cl)cc2)=C(CN2CCN(c3ccc(C(=O)NS(=O)(=O)c4ccc(N[C@H](CCN5CCOCC5)CSc5ccccc5)c(S(=O)(=O)C(F)(F)F)c4)cc3)CC2)C1 0.105 µM (active)
